# target.under.test: recombinant human BAFF (BioLegend) (human, UniProt Q9Y275 134-285)
# assay: cell-based or functional assay
Each record here notes measured BAFF IC50 (Δ WT).

binder	BAFF IC50 (Δ WT)
26 TACI CRD2-Fc (TACI vTD SEQ ID NO:26, K77E/F78Y/Y102D; Fc fusion SEQ ID NO: 167) (Fc fusion) SLSCRKEQGEYYDHLLRDCISCASICGQHPKQCADFCENKLRSGSGGGGSEPKSSDKTHTCPPCPAPEAEGAPSVFLFPPKPKDTLMISRTPEVTCVVVDVSHEDPEVKFNWYVDGVEVHNAKTKPREEQYNSTYRVVSVLTVLHQDWLNGKEYKCKVSNKALPAPIEKTISKAKGQPREPQVYTLPPSRDELTKNQVSLTCLVKGFYPSDIAVEWESNGQPENNYKTTPPVLDSDGSFFLYSKLTVDKSRWQQGNVFSCSVMHEALHNHYTQKSLSLSPG	0.84 ratio
13 TACI CRD2-Fc, WT TACI (68-110)-Fc (TACI 68-110, SEQ ID NO: 13, TACI-Fc SEQ ID NO: 171) (Fc fusion) SLSCRKEQGKFYDHLLRDCISCASICGQHPKQCAYFCENKLRSGSGGGGSEPKSSDKTHTCPPCPAPEAEGAPSVFLFPPKPKDTLMISRTPEVTCVVVDVSHEDPEVKFNWYVDGVEVHNAKTKPREEQYNSTYRVVSVLTVLHQDWLNGKEYKCKVSNKALPAPIEKTISKAKGQPREPQVYTLPPSRDELTKNQVSLTCLVKGFYPSDIAVEWESNGQPENNYKTTPPVLDSDGSFFLYSKLTVDKSRWQQGNVFSCSVMHEALHNHYTQKSLSLSPG	1 ratio
belimumab, anti-BAFF monoclonal antibody (antibody, V domains shown) VH: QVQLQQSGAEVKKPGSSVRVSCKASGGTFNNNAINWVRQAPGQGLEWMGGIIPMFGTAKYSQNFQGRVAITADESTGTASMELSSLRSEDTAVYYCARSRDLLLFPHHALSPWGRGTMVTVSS VL: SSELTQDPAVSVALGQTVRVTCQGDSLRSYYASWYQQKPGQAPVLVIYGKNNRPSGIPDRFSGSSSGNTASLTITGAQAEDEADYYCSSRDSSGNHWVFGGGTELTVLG	1.18 ratio
atacicept (WT TACI-Fc sequences corresponding to atacicept, containing WT TACI 30-110; SEQ ID NO:132) (Fc fusion) AMRSCPEEQYWDPLLGTCMSCKTICNHQSQRTCAAFCRSLSCRKEQGKFYDHLLRDCISCASICGQHPKQCAYFCENKLRSEPKSSDKTHTCPPCPAPEAEGAPSVFLFPPKPKDTLMISRTPEVTCVVVDVSHEDPEVKFNWYVDGVEVHNAKTKPREEQYNSTYRVVSVLTVLHQDWLNGKEYKCKVSNKALPSSIEKTISKAKGQPREPQVYTLPPSRDELTKNQVSLTCLVKGFYPSDIAVEWESNGQPENNYKTTPPVLDSDGSFFLYSKLTVDKSRWQQGNVFSCSVMHEALHNHYTQKSLSLSPGK	4.17 ratio
